Catalogue of TD50 at 6 h readings, one per entry.
- test_name: Lesion formation of gastric mucosa in rats
- Format: in vivo, rat (LEW/Crj)
- experimental_parameters: rat, in vivo; po, fasted rats, 6 hours after drug, Probit method; read-out: UD50 (gastric mucosa disorder)
outcome_measure: TD50 at 6 h (mg/kg)

> print(dat)
                      smiles.representation  measured.number
1  COc1ccc2c(c1)c(CC(=O)O)c(C)n2C(=O)c1ccc(Cl)cc1                3
2  CON1CC/C(=C\c2cc(C(C)(C)C)c(O)c(C(C)(C)C)c2)C1=O                1

###

- test_name: Lesion formation of gastric mucosa in rats
- Type: in vivo, rat (LEW/Crj)
- experimental_parameters: rat, in vivo, po
outcome_measure: TD50 at 6 h

> print(dat)
                      smiles.representation  outcome.measure       result
1  CCN1CC/C(=C\c2cc(C(C)(C)C)c(O)c(C(C)(C)C)c2)S1(=O)=O      TD50 at 6 h  > 400 mg/kg

###

- System: Production of PGE2 in Rat Synovial Membrane Cells
- test_name: Inhibitory activity against the production of PGE2 in rat synovial membrane cells (IL-1β stimulated, RIA)
- Format: cell-based, rat (LEW/Crj)
- experimental_parameters: rat synovial membrane cells, human IL-1β 30 U/ml, 15 hours; read-out: IC50 PGE2 (Rat SVC)
Please use MET for IC50 under 10 nM and NOT MET for everything else, ties included.

> print(dat)
                                   compound    label
1  CC(C)(C)c1cc(/C=C2\CCN(C(=O)NO)S2(=O)=O)cc(C(C)(C)C)c1O  NOT MET
2  CC(C)(C)c1cc(/C=C2\CCN(OCc3ccccc3)S2(=O)=O)cc(C(C)(C)C)c1O  NOT MET
3  CC(C)(C)c1cc(/C=C2\CCN(O)S2(=O)=O)cc(C(C)(C)C)c1O [Compound 11a]  NOT MET
4  CC(C)(C)c1cc(/C=C2/CCN(O)S2(=O)=O)cc(C(C)(C)C)c1O [Compound 11b]  NOT MET
5  CON1CC/C(=C\c2cc(C(C)(C)C)c(O)c(C(C)(C)C)c2)S1(=O)=O      MET
6  CC(C)(C)c1cc(/C=C2\CCN(c3ccccn3)S2(=O)=O)cc(C(C)(C)C)c1O  NOT MET
7  CCN1CC/C(=C\c2cc(C(C)(C)C)c(O)c(C(C)(C)C)c2)S1(=O)=O      MET
